Molecular target: T1, human CNTN4 antigen expressed on the cell membrane of 293FT cells (human) (UniProt Q8IWV2)
T1 sequence (looked up): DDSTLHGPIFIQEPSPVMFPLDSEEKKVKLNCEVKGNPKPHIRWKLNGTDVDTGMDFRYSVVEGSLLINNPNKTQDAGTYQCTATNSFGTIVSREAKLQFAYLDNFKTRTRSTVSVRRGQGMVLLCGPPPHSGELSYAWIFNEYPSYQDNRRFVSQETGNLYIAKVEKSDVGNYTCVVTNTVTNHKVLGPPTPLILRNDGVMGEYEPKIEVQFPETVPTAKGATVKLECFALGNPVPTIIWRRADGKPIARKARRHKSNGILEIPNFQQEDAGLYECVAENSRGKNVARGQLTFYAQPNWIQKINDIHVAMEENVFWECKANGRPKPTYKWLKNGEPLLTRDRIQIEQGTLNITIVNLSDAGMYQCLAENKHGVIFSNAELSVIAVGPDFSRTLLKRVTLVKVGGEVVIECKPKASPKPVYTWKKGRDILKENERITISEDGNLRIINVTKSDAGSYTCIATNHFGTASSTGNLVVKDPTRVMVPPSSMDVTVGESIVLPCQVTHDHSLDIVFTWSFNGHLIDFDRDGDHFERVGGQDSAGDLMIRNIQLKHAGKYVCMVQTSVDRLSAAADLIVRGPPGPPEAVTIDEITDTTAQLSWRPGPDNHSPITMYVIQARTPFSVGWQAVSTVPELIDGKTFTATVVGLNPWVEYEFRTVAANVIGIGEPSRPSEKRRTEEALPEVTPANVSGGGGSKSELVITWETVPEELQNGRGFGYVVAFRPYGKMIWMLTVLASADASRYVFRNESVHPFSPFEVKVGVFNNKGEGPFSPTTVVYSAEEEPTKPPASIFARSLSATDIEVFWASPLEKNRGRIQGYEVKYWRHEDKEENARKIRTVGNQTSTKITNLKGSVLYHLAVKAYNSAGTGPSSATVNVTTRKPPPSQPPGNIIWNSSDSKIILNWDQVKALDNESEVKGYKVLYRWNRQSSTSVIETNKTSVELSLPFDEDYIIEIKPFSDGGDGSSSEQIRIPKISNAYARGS
Test: FACS, 293FT cells transfected with human CNTN4, 40 ug/mL, anti-hCk-PE
# Shift % values compiled below

{"columns": ["BINDER", "Shift % (%)"],
 "data": [
  ["anti-CNTN4 scFv-hCk S96 (scFv, part only; not given: linker and kappa constant region, V domains shown, not shown: another chain or arm of the molecule; a dimerising Fc or GST; small tags and cut ends) VL: ALTQPSSVSANPGETVKITCSGSSGSYGYSWHQQKSPGSAPVTVIYESNKRPSNIPSRFSGSTSGSTSTLTITGVQADDEAVYFCGSADSSTTIAFGAGTTLTVL VH: AVTLDESGGGLQTPGGTLSLVCKASGFTFSTYSMQWLRQAPGKGLEWVAGISNSGSSTVYGPAVKGRATISRDNGQSTVSLQLNNLRAEDTGTYYCAKSTYGGSWYAAYSIDEWGHGTEVIVSS", 1.69],
  ["anti-CNTN4 scFv-hCk S99 (scFv, part only; not given: linker and kappa constant region, V domains shown, not shown: another chain or arm of the molecule; a dimerising Fc or GST; small tags and cut ends) VL: ALTQPSSVSANPGETVKITCSGGASYAGNYYYGWYQQKSPGSAPVTVIYNNNQRPSDIPSRFSGSLSGSTNTLTITGVQADDEAVYFCGSDDSSAGYTGIFGAGTTLTVL VH: AVTLDESGGGLQTPGGALSLVCKASEFTFSGYGMHWVRQAPGKGLEFVAEISNTGSWTGYGAAVKGRATISRDNGQSTVRLQLNNLKADDTATYYCAKVGGRGWCGRSGCADDIDAWGHGTEVIVSS", 20.5]
]}
